SYSTEM NAME: ~100 representative kinases (Homo sapiens, UniProt Q86V86)
Construct: Recombinant protein kinase domains with a concentration of 2 μM
TEST METHOD NOTES: DSF 100 kinase selectivity screen;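 also: compound tested at 20 µM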
Format: binding
EXPERIMENTAL CONDITIONS: protein PIM3; average of three replicates
VALUE KIND: dTm (K)
The response must be a number in K with no trailing unit.

Endpoint output: dTm of CCNc1nc(Nc2cc(F)c(C(=O)N3CCOCC3)cc2OC)ncc1C(F)(F)F [GNE-7915] . Value?
0.92

Also COc1cc(C(=O)N2CCOCC2)c(F)cc1Nc1nc(N(C)C)c2c(Cl)c[nH]c2n1 [Compound 36] ?
-0.33

Also COc1cc2c(Oc3ccc(NC(=O)C4(C(=O)Nc5ccc(F)cc5)CC4)cc3F)ccnc2cc1OCCCN1CCOCC1 [Foretinib, reference compound] ?
-0.88

Also Cc1cc(NC(=O)C2(C(=O)Nc3cccc(-c4c[nH]c5ncnc(N6CCOCC6)c45)c3)CC2)ccc1F [Compound 20] ?
1.71

====

SYSTEM NAME: ~100 representative kinases (Homo sapiens)
Construct: Recombinant protein kinase domains with a concentration of 2 μM
TEST METHOD NOTES: DSF 100 kinase selectivity screen;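 also: compound tested at 20 µM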
Format: binding
EXPERIMENTAL CONDITIONS: protein MARK3; average of three replicates
I'd appreciate it if you could supply log10 of dTm values for the items below.
For clarity, the numbers are log10 values of dTm expressed in K.

Endpoint output: log10 of dTm of O=C(Nc1cccc(-c2c[nH]c3ncnc(N4CCOCC4)c23)c1)C1(C(=O)Nc2ccc(F)c(Br)c2)CC1 . Value?
0.85

Also O=C(Nc1cccc(-c2c[nH]c3ncnc(N4CCOCC4)c23)c1)C1(C(=O)Nc2cc(Br)c(F)cc2F)CC1 ?
0.48

Also O=C(Nc1cccc(-c2c[nH]c3ncnc(N4CCOCC4)c23)c1)C1(C(=O)Nc2ccc(F)c(Cl)c2)CC1 ?
0.85

Also O=C(Nc1cccc(-c2c[nH]c3ncnc(N4CCOCC4)c23)c1)c1cccn(-c2ccc(F)cc2)c1=O ?
0.65

Also Cc1ccc(-n2nc(C(C)(C)C)cc2NC(=O)Nc2cccc(-c3c[nH]c4ncnc(N5CCOCC5)c34)c2)cc1 ?
0.47

Also COc1cc2c(Oc3ccc(NC(=O)C4(C(=O)Nc5ccc(F)cc5)CC4)cc3F)ccnc2cc1OCCCN1CCOCC1 [Foretinib, reference compound] ?
0.60

Also O=C(Nc1ccc(F)cc1)C1(C(=O)Nc2cccc(-c3c[nH]c4ncnc(N5CCOCC5)c34)c2)CC1 ?
0.68

Also COc1cc(S(C)(=O)=O)ccc1Nc1nc(N(C)C)c2c(Cl)c[nH]c2n1 ?
-0.12

Also O=C(Nc1ccccc1)C1(C(=O)Nc2cccc(-c3c[nH]c4ncnc(N5CCOCC5)c34)c2)CC1 ?
0.69

Also O=C(Nc1cccc(-c2c[nH]c3ncnc(N4CCOCC4)c23)c1)C1(C(=O)Nc2ccc(F)cc2F)CC1 ?
0.67

Also CCNc1nc(Nc2cc(F)c(C(=O)N3CCOCC3)cc2OC)ncc1C(F)(F)F ?
-0.19

Also COc1cc(NC(=O)C2(C(=O)Nc3cccc(-c4c[nH]c5ncnc(N6CCOCC6)c45)c3)CC2)ccc1F ?
0.82

Also CCSc1nc(NC)c2c(-c3cccc(NC(=O)Nc4cc(C(C)(C)C)nn4-c4ccc(C)cc4)c3)c[nH]c2n1 ?
-0.80

Also CCc1ccc(NC(=O)C2(C(=O)Nc3cccc(-c4c[nH]c5ncnc(N6CCOCC6)c45)c3)CC2)cc1 ?
0.79

Also O=C(Nc1cccc(-c2c[nH]c3ncnc(N4CCOCC4)c23)c1)C1(C(=O)Nc2ccc(F)c(Br)c2F)CC1 ?
0.60
